Applied Conditions: in PEG-200, 303.2 K
Measured Property: solubility (mole fraction)
Answer as a number with no unit attached.

Sure, the documented solubility (mole fraction) for CC(=O)N1CCN(c2ccc(OC[C@@H]3CO[C@@](Cn4ccnc4)(c4ccc(Cl)cc4Cl)O3)cc2)CC1 (racemic) is 0.00718

###

Applied Conditions: in water, 318.2 K
Measured Property: solubility (mole fraction)
Give a plain numeric answer without units written out.

Entry CC(=O)N1CCN(c2ccc(OC[C@@H]3CO[C@@](Cn4ccnc4)(c4ccc(Cl)cc4Cl)O3)cc2)CC1 (racemic) ; solubility (mole fraction) = 9e-07

###

Applied Conditions: in PEG-200, 318.2 K
Measured Property: solubility (mole fraction)
API doc: respond with a numeric literal and nothing else, no unit.

Value of solubility (mole fraction) reported for the molecule CC(=O)N1CCN(c2ccc(OC[C@@H]3CO[C@@](Cn4ccnc4)(c4ccc(Cl)cc4Cl)O3)cc2)CC1 (racemic) is 0.0144

Sourced from BigSolDB 2.1
